Test System: purified ovine COX-1 (Ovis aries)
Construct: purchased Cayman Chemicals (Ann Arbor, Mich.)
Sequence (P05979 25-600): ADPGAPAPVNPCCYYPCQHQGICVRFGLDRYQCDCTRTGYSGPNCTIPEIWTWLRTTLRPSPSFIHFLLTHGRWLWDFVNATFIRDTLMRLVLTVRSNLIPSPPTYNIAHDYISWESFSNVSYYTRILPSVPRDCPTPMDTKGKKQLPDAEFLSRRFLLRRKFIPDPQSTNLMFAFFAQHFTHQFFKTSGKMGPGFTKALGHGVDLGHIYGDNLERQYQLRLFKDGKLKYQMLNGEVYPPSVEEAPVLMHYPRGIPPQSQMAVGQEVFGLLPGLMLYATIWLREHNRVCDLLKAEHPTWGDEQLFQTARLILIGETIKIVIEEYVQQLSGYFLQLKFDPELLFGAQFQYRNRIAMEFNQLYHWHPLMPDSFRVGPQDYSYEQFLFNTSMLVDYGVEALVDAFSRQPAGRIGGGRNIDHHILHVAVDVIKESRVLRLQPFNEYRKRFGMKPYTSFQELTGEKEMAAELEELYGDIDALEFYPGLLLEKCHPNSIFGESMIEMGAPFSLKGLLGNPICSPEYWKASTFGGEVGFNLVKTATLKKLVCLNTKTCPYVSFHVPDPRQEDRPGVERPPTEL
Experiment: Inhibition of purified ovine COX-1 (PGH2 converted to PGF2α, EIA)
Type: biochemical
Condition: at 90 μM; read-out: % inh of pur. bovine COX-1
Metric: inhibition at 90 µM
Include the unit after the number when you answer.

Example entries and their recorded answers appear below.
1) CCCC1(CC(=O)O)CCCc2c1[nH]c1cc(C#N)ccc21 (stereo not shown)    100%
2) CCCC1(CC(=O)O)OCCc2c1[nH]c1c(C)ccc(C#N)c21 (stereo not shown)    86%
3) CCCC1(CC(=O)O)CCCc2c1[nH]c1c(C(N)=O)ccc(C#N)c21 (stereo not shown)    -37%

Next up:
Quick one: inhibition at 90 µM for CCCC1(CC(=O)O)CCCc2c1[nH]c1cccc(C#N)c21 (stereo not shown) ?
74%

All values here come from patent US5830911A.
